B1: KLHL12 (parent)
chain: SMTTPRCYVGATVLRGRLYAIAGY

- Variants of: B1
- runDescription: protein stability index of a GFP-peptide fusion (GPS, HEK-293T) (PSI 1-6); higher = more stable;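 note: lentivirally expressed fusions sorted by FACS into six bins by GFP to DsRed ratio, PSI derived from sequencing read proportions per bin multiplied by bin number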
- particulars: c terminus: a fixed tail appended
Everything with protein stability index lower than 2 is False; everything else, including exactly 2, is True.

Say whether QMTTPRCYVGATVLRGRLYAIAGY [S1Q] shows protein stability index of 2 or more.
False

And then SMTTPRCYVGATVNRGRLYAIAGY [L14N] , what is it?
False

Cool, now SMTTPRCYVGATLLRGRLYAIAGY [V13L]
True

Another variant to look at: SMTTPRCYVGATVLRGRLYIIAGY [A20I]
True

Entry SMTTPRCYVGATVLRGRLYASAGY [I21S] please
False

Could you do the same for SMTTIRCYVGATVLRGRLYAIAGY [P5I] , please?
False

Another: SMKTPRCYVGATVLRGRLYAIAGY [T3K]
True

Now this one: KMTTPRCYVGATVLRGRLYAIAGY [S1K]
False

Thanks! And SMTTPRCYVGAVVLRGRLYAIAGY [T12V] ?
True

Moving on to SMTTPRCYVGATVLCGRLYAIAGY [R15C]
True

Do the same for SMTTPRCYVCATVLRGRLYAIAGY [G10C] please
True

Then SMTTPRHYVGATVLRGRLYAIAGY [C7H] ?
False

Similarly, SMTTPRCYVGRTVLRGRLYAIAGY [A11R] ?
True

What about SMTTPNCYVGATVLRGRLYAIAGY [R6N] ?
True

Same read-out for SMTTPRCYVGNTVLRGRLYAIAGY [A11N] ?
False

Now this one: SMTTPRCYVGATVLRGRLYAIDGY [A22D]
True

Entry SMTTPRCYRGATVLRGRLYAIAGY [V9R] please
True

And what about the variant SHTTPRCYVGATVLRGRLYAIAGY [M2H] ?
False

What would you report for SMTTNRCYVGATVLRGRLYAIAGY [P5N] ?
True

Same thing, different variant: SMTTPRCYVGATMLRGRLYAIAGY [V13M]
False

Subsequent entry: SDTTPRCYVGATVLRGRLYAIAGY [M2D]
True

Entry SMTTPRCSVGATVLRGRLYAIAGY [Y8S] please
True

Next variant: SMTTPRCYVGAPVLRGRLYAIAGY [T12P]
False

Would you kindly repeat that for SMTTPRCYVGATVLRGGLYAIAGY [R17G] ?
True

Same read-out for SMTTPRCYVGATVLRGRLYANAGY [I21N] ?
False

Moving on to the next variant: SMTTPRCYVGATVLKGRLYAIAGY [R15K]
True

Also need SMTTPRCYVGATVLRGRLYAIAGT [Y24T] , thanks.
False

For SMTTPRCYVGATVLRGRLYATAGY [I21T] then?
False

Further, for SMTTPRCYVGATVLRGRLCAIAGY [Y19C] ?
True

Same again, this time with SQTTPRCYVGATVLRGRLYAIAGY [M2Q]
False

Repeat with SMTTPQCYVGATVLRGRLYAIAGY [R6Q]
True

Here is the next variant: SMTTPRCYVGATVLRRRLYAIAGY [G16R]
True

Same lookup for SMTTPRAYVGATVLRGRLYAIAGY [C7A] , please.
False

Then SMTTRRCYVGATVLRGRLYAIAGY [P5R] ?
True

And what about the variant SMTTPTCYVGATVLRGRLYAIAGY [R6T] ?
False

What about SMTTPRCYTGATVLRGRLYAIAGY [V9T] ?
False

Try the variant SMTTPRCYVGATVLRWRLYAIAGY [G16W]
False

Do the same for SMTTPRCYVGATVLRGRLYEIAGY [A20E] please
False

Field entry: SMTTPRCYVGATVLRGRLYKIAGY [A20K]
True

Likewise for SMTTPRCYVGATVLRGRLYAIANY [G23N] ?
False

Moving on to SMTTPRCYVGATVLGGRLYAIAGY [R15G]
True

What do you get for SMTTPRCYVGATVLRGRLYAVAGY [I21V] ?
True

Please answer likewise for SMTTPRCYVGATGLRGRLYAIAGY [V13G]
True

Again, but for SMTTPRCYVGATVLVGRLYAIAGY [R15V]
True

Record: SMTKPRCYVGATVLRGRLYAIAGY [T4K]
True

Can you check SMTMPRCYVGATVLRGRLYAIAGY [T4M] next?
True

Then what about the variant SMTTPRCYVGATVLRGRLYAIAEY [G23E] ?
True

Entry SMTTPRCRVGATVLRGRLYAIAGY [Y8R] please
False

Further, for SMTTPRCYVGATVLRGRVYAIAGY [L18V] ?
True

Next variant: SMTTPRCYVGATVTRGRLYAIAGY [L14T]
True

Let us now turn to SMCTPRCYVGATVLRGRLYAIAGY [T3C]
True

Proceed to MMTTPRCYVGATVLRGRLYAIAGY [S1M]
False

Try the variant SMTTPRCYVGATVLRIRLYAIAGY [G16I]
True

# repeat for SFTTPRCYVGATVLRGRLYAIAGY [M2F]
True

Similarly, SMTTPRCYVGATVLRGRLYAISGY [A22S] ?
False

And what about the variant SMTTPRCYVGSTVLRGRLYAIAGY [A11S] ?
False

Quick one: SMTDPRCYVGATVLRGRLYAIAGY [T4D]
True

Request: SMTTPRCYVGATVHRGRLYAIAGY [L14H]
False

Then SMTTPRCYVGATVLRGRLPAIAGY [Y19P] ?
True

Same again, this time with SMTTPRCHVGATVLRGRLYAIAGY [Y8H]
False

And SMTTPRCYVGAQVLRGRLYAIAGY [T12Q] ?
False

Here is the next variant: SMTTPRCFVGATVLRGRLYAIAGY [Y8F]
True

// next record SMTTPRCYVGAAVLRGRLYAIAGY [T12A]
False

Then this variant: IMTTPRCYVGATVLRGRLYAIAGY [S1I]
True

How about SMTTPRCYVGATVLRGRLYAIAHY [G23H] ?
True

And the next one, SMTTPRCYVGATILRGRLYAIAGY [V13I] ?
False

Now the variant SMTTPRCYFGATVLRGRLYAIAGY [V9F]
True

Another variant: SMTTPRCYGGATVLRGRLYAIAGY [V9G]
False

Also check SMTTPRCYVGATVLRGRRYAIAGY [L18R]
False

Similarly, SLTTPRCYVGATVLRGRLYAIAGY [M2L] ?
True

What do you have for SMTPPRCYVGATVLRGRLYAIAGY [T4P] ?
False

Please give the result for SMTTPRCYVGATVLRGRLYVIAGY [A20V] too.
True

Continue with SMTTPRCYVGATALRGRLYAIAGY [V13A]
False

Input SMTTPRSYVGATVLRGRLYAIAGY [C7S]
True

Subsequent entry: SMTTTRCYVGATVLRGRLYAIAGY [P5T]
True

Also SMTTPRCYVGATVLRGRLWAIAGY [Y19W] , if possible.
True

Request: SMTTPRCYVGAGVLRGRLYAIAGY [T12G]
False

Item: SMYTPRCYVGATVLRGRLYAIAGY [T3Y]
False

Same read-out for SMTTPRCYVGATVLRGRLIAIAGY [Y19I] ?
True

And the next one, SMTTPRCYVGATVLRGRLYAWAGY [I21W] ?
True

Field entry: SMTTPRCYVGATVLRGVLYAIAGY [R17V]
True

Follow-up entry: SMTTPRCYVGATQLRGRLYAIAGY [V13Q]
True

Again, but for SMTTPRCYVGATVLRGRLYAPAGY [I21P]
True

Next variant: SMTTPRCYVGATVLRGRLYAIAIY [G23I]
False

For SMTTPRCYVGATVLRGRLYAIAGS [Y24S] then?
False

Now this one: SMTTPRCYVGATVYRGRLYAIAGY [L14Y]
True

Same question for SMTTPRCLVGATVLRGRLYAIAGY [Y8L] please.
True
